- Test system: RAW-Dual
- Assay protocol: NF-kB SEAP reporter activity, fold change vs agonist alone; higher = enhanced NF-kB activity
- Assay setup: library stock concentration (final ~1000-fold dilution): 10 mM; cytotoxicity flag (confluency mask): not cytotoxic; agonist: Imiquimod (TLR7) […]
Over roughly 2,900 compounds, “NF-kB SEAP reporter activity, fold change vs agonist alone” has its median near 0.99; the highest 2% begin near 2.6. Shown is part of a subset that was picked to be rich in the highest values.
Recorded metric: NF-kB SEAP reporter activity
// response body must contain only the number

O=c1oc2cc(O)ccc2c2ccc(O)cc12    1.26

stdin: Supply reported NF-kB SEAP reporter activity belonging to this compound: Nc1cccc2c1C(=O)N(C1CCC(=O)NC1=O)C2=O (stereo not drawn)
stdout: 1.6

stdin: Supply reported NF-kB SEAP reporter activity belonging to this compound: `NS(=O)(=O)c1ccc(NC(=S)N2CCN(C/C=C/c3ccccc3)CC2)cc1`
stdout: 1.02

stdin: Supply reported NF-kB SEAP reporter activity belonging to this compound: O=C1CCC(N2C(=O)c3ccccc3C2=O)C(=O)N1 (stereo not drawn)
stdout: 0.926

stdin: Supply reported NF-kB SEAP reporter activity belonging to this compound: COC1/C=C/OC2(C)Oc3c(C)c(O)c4c(O)c(c(/C=N/N5CCN(C)CC5)c(O)c4c3C2=O)NC(=O)/C(C)=C/C=C/C(C)C(O)C(C)C(O)C(C)C(OC(C)=O)C1C (stereo not drawn)
stdout: 0.886

stdin: Supply reported NF-kB SEAP reporter activity belonging to this compound: `Clc1ccc(N/N=C(\c2ccccc2)c2ccccn2)nc1`
stdout: 1.5
